Data origin, for the record: patent US4556674A

mortality at 216 h overview
experiment: Acute Toxicity in Mice; type: in vivo; conditions: mouse, in vivo, po; 200 mg/kg p.o.; death rate recorded 9 days after treatment
Numbers only here, please. The scale is %.

// known answers, use as guide
| COMPOUND | mortality at 216 h / % |
| --- | --- |
| COc1ccc(CCN=C2CCCN2C)cc1OC [Compound A, reference compound] | 0 |
| CN1CC(COc2ccccc2C#N)CC1=NCCOc1ccccc1 (centres unmarked) | 0 |
| COCCN=C1CC(c2cc3ccccc3o2)CN1C (centres unmarked) | 0 |

Prompt line: Query: mortality at 216 h; subject: CN1CC(COc2ccc3c(c2)OCO3)CC1=NCCOc1ccccc1 (centres unmarked)
Response line: 0

Prompt line: Can you look up the measured mortality at 216 h of COc1ccc(CCN=C2CC(COc3ccccc3)CN2C)cc1OC (centres unmarked) for me?
Response line: 0

Prompt line: Entry CN1CC(c2cc3ccccc3o2)CC1=NCCOc1ccccc1 (centres unmarked) : reported mortality at 216 h = ?
Response line: 10

Prompt line: Value lookup for mortality at 216 h; key = CN1CC(c2cc3ccccc3o2)CC1=NCCO (centres unmarked)
Response line: 0

Prompt line: What value of measured mortality at 216 h is listed for COc1ccc(CCN=C2CC(c3ccccc3)CN2C)cc1OC (centres unmarked) ?
Response line: 0

Prompt line: Name the reported mortality at 216 h value associated with the compound CN1CC(c2ccccc2)CC1=NCCc1ccccc1 (centres unmarked)
Response line: 0

Prompt line: Please look up its mortality at 216 h: CN1CC(c2cc3ccccc3o2)CC1=NCCc1ccccc1 (centres unmarked)
Response line: 0

Prompt line: Which mortality at 216 h is listed for COc1ccc(CCN=C2CC(COc3ccc4c(c3)OCO4)CN2C)cc1OC (centres unmarked) ?
Response line: 0

Prompt line: Requested field: mortality at 216 h. Item: CCc1ccccc1OCC1CC(=NCCc2ccc(OC)c(OC)c2)N(C)C1 (centres unmarked)
Response line: 0

Prompt line: Given CC(Cc1ccccc1)N=C1CC(c2cc3ccccc3o2)CN1C (centres unmarked) , state its recorded mortality at 216 h.
Response line: 0

Prompt line: Find the recorded mortality at 216 h belonging to CN1CC(c2ccccc2)CC1=NCCOc1ccccc1 (centres unmarked) and report it.
Response line: 0

Prompt line: Give its mortality at 216 h value. Item: COc1ccc(CCN=C2CC(c3cc4ccccc4o3)CN2C)cc1OC (centres unmarked)
Response line: 0

Prompt line: So what does the record say about mortality at 216 h for CC(Cc1ccccc1)N=C1CC(c2ccccc2)CN1C (centres unmarked) ?
Response line: 83

Prompt line: Quick check: mortality at 216 h of CCN1CC(c2ccccc2)CC1=NCCc1ccc(OC)c(OC)c1 (centres unmarked) ?
Response line: 0

* * *

assay: Acute Toxicity in Mice; format: in vivo; conditions: mouse, in vivo, ip; 100 mg/kg i.p.; death rate recorded 9 days after treatment
MEASURED_PROPERTY: mortality at 216 h (%)
# output: bare number, implied unit %

| COMPOUND | mortality at 216 h [%] |
| --- | --- |
| CN1CC(c2ccccc2)CC1=NCCc1ccccc1 (stereo not drawn) | 80 |

Then there is this compound:
Prompt line: Give its mortality at 216 h value. Item: COc1ccc(CCN=C2CC(COc3ccccc3)CN2C)cc1OC (stereo not drawn)
Response line: 40
